- target-of-assay: T1, human CD73 (huCD73) protein, antigen of the Biacore assay (human, UniProt P21589 27-547, limits assumed)
- T1 construct: also called human CD73 antigen
- T1 sequence (looked up): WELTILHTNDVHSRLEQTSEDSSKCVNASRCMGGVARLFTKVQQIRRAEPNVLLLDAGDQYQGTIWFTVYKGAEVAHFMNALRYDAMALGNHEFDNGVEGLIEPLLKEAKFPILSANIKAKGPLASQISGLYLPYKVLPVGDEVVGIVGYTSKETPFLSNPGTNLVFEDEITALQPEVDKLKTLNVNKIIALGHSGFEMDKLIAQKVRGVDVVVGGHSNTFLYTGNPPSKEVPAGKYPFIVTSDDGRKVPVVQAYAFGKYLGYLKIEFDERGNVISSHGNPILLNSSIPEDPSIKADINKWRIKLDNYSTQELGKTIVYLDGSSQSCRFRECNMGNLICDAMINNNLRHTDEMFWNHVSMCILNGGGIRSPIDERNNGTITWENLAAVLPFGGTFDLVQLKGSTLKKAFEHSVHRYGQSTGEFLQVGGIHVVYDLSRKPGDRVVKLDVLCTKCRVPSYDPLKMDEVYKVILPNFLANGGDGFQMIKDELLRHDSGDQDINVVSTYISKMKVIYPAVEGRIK
- assay-method-text: SPR Biacore T200; antibody captured on Protein A chip, CD73 in flow; 1:1 Langmuir
Each record here notes measured kon.

binder	unit-tag	kon
Hab108.15 (antibody, V domains shown, VL1 + VH5; full-length antibody) VH: EVTLKESGPVLVKPTETLTLTCTVSGFSLKSYGIQWVRQPPGKLLEWLGVIWSGGSADYNAAFISRLTISKDTSKSQVVLTMTNMDPVDTATYYCAGQYGSVWGQGTLVTVSS VL: DIQMTQSPSSLSASVGDRVTITCRASQDIGDRLNWYQQKPGKAPKRLIYATSSLDSGVPSRFSGSGSGTEFTLTISSLQPEDFATYYCLQYAGSWTFGGGTKVEIK	M⁻¹ s⁻¹	249000
CH108 (antibody, V domains shown, also called chimeric antibody of mab108) VH: QVQLKQSGPGLVQPSQSLSITCTVFGFSLKSYGIQWVRQSPGKGLEWLGVIWSGGSADYNAAFISRLSISKDNSKSQVFFKMNSLQGDDTAIYYCAGQYGSVWGQGTSVTVSS VL: DIQMTQSPSSLSASLGERVSLTCRASQDIGDRLNWLQQEPDGTIKRLIYATSSLDSGVPKRFSGSRSGSDYSLTISSLESEDFVDYYCLQYAGSWTFGGGTKLEIK	M⁻¹ s⁻¹	160000
